For each record, write down the corresponding MIC.
Tested on: Pseudomonas aeruginosa
Assay: Antibacterial activity against Pseudomonas aeruginosa ATCC 9027 after 18 to 24 hrs by liquid broth method
Type: functional

Exam item: Which measured MIC value corresponds to CCCn1c(S)nnc1-c1ccc(S(=O)(=O)c2ccccc2)cc1 ?
Marked response: > 1020 µg/mL

Exam item: Which measured MIC value corresponds to O=[N+]([O-])c1cccc(/C=N/n2c(-c3ccc(S(=O)(=O)c4ccccc4)cc3)nn(CN3CCOCC3)c2=S)c1 ?
Marked response: 1020 µg/mL

Exam item: Which measured MIC value corresponds to CCCn1c(-c2ccc(S(=O)(=O)c3ccc(Cl)cc3)cc2)nn(CN2CCOCC2)c1=S ?
Marked response: > 1020 µg/mL

Exam item: Which measured MIC value corresponds to COc1ccccc1/C=N/n1c(-c2ccc(S(=O)(=O)c3ccccc3)cc2)nn(CN2CCOCC2)c1=S ?
Marked response: > 1020 µg/mL

Exam item: Which measured MIC value corresponds to CCCn1c(-c2ccc(S(=O)(=O)c3ccccc3)cc2)nn(CN2CCOCC2)c1=S ?
Marked response: > 1020 µg/mL

Exam item: Which measured MIC value corresponds to O=S(=O)(c1ccc(Cl)cc1)c1ccc(-c2nn(CN3CCOCC3)c(=S)n2/N=C/c2ccccc2)cc1 ?
Marked response: 1020 µg/mL

Exam item: Which measured MIC value corresponds to O=[N+]([O-])c1cccc(/C=N/n2c(-c3ccc(S(=O)(=O)c4ccccc4)cc3)n[nH]c2=S)c1 ?
Marked response: 512 µg/mL

Exam item: Which measured MIC value corresponds to CN(C)c1ccc(/C=N/n2c(-c3ccc(S(=O)(=O)c4ccccc4)cc3)nn(CN3CCOCC3)c2=S)cc1 ?
Marked response: > 1020 µg/mL

---

System: Bacillus subtilis
Experiment: Antibacterial activity against Bacillus subtilis ATCC 6633 after 18 to 24 hrs by liquid broth method
Format: functional
recordedEndpoint: MIC (µg/mL)
The figure you give is taken to be in µg/mL; do not add the unit.

Exam item: Which measured MIC value corresponds to O=S(=O)(c1ccccc1)c1ccc(-c2nn(CN3CCOCC3)c(=S)n2/N=C/c2ccccc2)cc1 ?
Marked response: 512

Exam item: Which measured MIC value corresponds to CCCn1c(S)nnc1-c1ccc(S(=O)(=O)c2ccc(Br)cc2)cc1 ?
Marked response: 1020

Exam item: Which measured MIC value corresponds to CN(C)c1ccc(/C=N/n2c(-c3ccc(S(=O)(=O)c4ccccc4)cc3)n[nH]c2=S)cc1 ?
Marked response: 64

---

Tested on: Acinetobacter baumannii
Assay: Antibacterial activity against Acinetobacter baumannii ATCC 19606 after 18 to 24 hrs by liquid broth method
Assay type: functional
Conditions: ATCC 19606 = CIP 70.34 = JCM 6841
recordedEndpoint: MIC (µg/mL)
The figure you give is taken to be in µg/mL; do not add the unit.

Exam item: Which measured MIC value corresponds to O=[N+]([O-])c1cccc(/C=N/n2c(-c3ccc(S(=O)(=O)c4ccccc4)cc3)n[nH]c2=S)c1 ?
Marked response: 1020

Exam item: Which measured MIC value corresponds to O=S(=O)(c1ccccc1)c1ccc(-c2nn(CN3CCOCC3)c(=S)n2/N=C/c2ccco2)cc1 ?
Marked response: 512

Exam item: Which measured MIC value corresponds to O=C(N[C@H](CO)[C@H](O)c1ccc([N+](=O)[O-])cc1)C(Cl)Cl ?
Marked response: 128
